Reported TGI values for the following molecules.
Tested on: SF-268 CNS
methodDescription: NCI tumour cell line growth inhibition, 48 h
Express it in µM; write the number only.

The examples below pair each entry with its known result.
>>> result("CC(C)=CCC1=C(OCC(=O)O)C(=O)c2ccccc2C1=O")
65
>>> result("Cc1cc(C)c2c(c1)C1=NCCN1C2(O)c1ccc(Cl)cc1 (centres undefined)")
31

Q: Recorded TGI for CCC(C)[C@H](NC(=O)NC(=O)NC(=O)CI)C(=O)OC (some centres undefined) with SF-268 CNS, please?
A: 28.5

----------
System: SF-268 CNS
methodDescription: NCI tumour cell line growth inhibition, 48 h
Reported GI50 values for the following molecules.

The examples below pair each entry with its known result.
>>> result("COc1ccc(-c2nc(Nc3ccc(-c4nc5ccccc5[nH]4)cc3)nc(N3CCOCC3)n2)cc1")
"2.82 µM"
>>> result("C=C(C)C1CC=C(C)CC1 (centres undefined)")
"> 100 µM"
>>> result("O=C(NNc1ccc(F)cc1)C1CCC(CNS(=O)(=O)c2ccc(Cl)c(Cl)c2)CC1 (centres undefined)")
"4.76 µM"

Next molecule, GI50 to be filled in.
Q: Sample CC1SC2(CCC(c3ccccc3)CC2)N(NC(=O)c2[nH]c3ccc(F)cc3c2-c2ccccc2)C1=O (centres undefined) — what was its GI50?
A: 21.2 µM

----------
Reported TGI values for the following compounds.
System: EKVX NSCLC
methodDescription: NCI tumour cell line growth inhibition, 48 h
Express it in µM; write the number only.

The examples below pair each entry with its known result.
>>> result("CC1SC2(CCC(c3ccccc3)CC2)N(NC(=O)c2[nH]c3ccc(F)cc3c2-c2ccccc2)C1=O (stereo unspecified)")
54.2
>>> result("Cc1[nH]c(C(=O)Nc2ccccc2OC2CCNCC2)c(Cl)c1Cl")
3.86
>>> result("COC(=O)c1ccc(NCc2c(O)ccc(O)c2Br)cc1Cl")
28.5
>>> result("N=C(N)SCc1cc(Cl)cc(Cl)c1O")
42.8

Q: Sample C=C1CC[C@@H]2[C@](C)(COC(C)=O)[C@H](OC(C)=O)CC[C@@]2(C)[C@@H]1CC(Nc1ccc(S(=O)(=O)Nc2cc(C)on2)cc1)C1=CCOC1=O (stereo partly specified) — what was its TGI?
A: 25.9

----------
System: CCRF-CEM leukemia
methodDescription: NCI tumour cell line growth inhibition, 48 h
propertyName: TGI

The examples below pair each entry with its known result.
>>> result("O=C(N=Nc1c(O)[nH]c2ccccc12)c1oc2ccccc2c1CN1CCN(c2ccccc2)CC1")
"> 50 µM"
>>> result("Cc1ccc2c(c1)C1(OC(=O)c3ccccc31)c1ccc(F)cc1O2 (configuration not stated)")
"> 100 µM"

Q: Sample C=C1CCC2C3(C)COC(c4c(OC)cccc4OC)OC3CCC2(C)C1C/C=C1/C(=O)OCC1O (configuration not stated) — what was its TGI?
A: 5.75 µM

Q: Sample CCOC(=O)/C(N=Nc1ccc(-n2c(C)nc3ccc(Br)cc3c2=O)cc1)=C(/C)O — what was its TGI?
A: > 100 µM

----------
Tested on: SW-620 colon
methodDescription: NCI tumour cell line growth inhibition, 48 h
Reported TGI values for the following compounds.

The examples below pair each entry with its known result.
>>> result("CC(=O)[CH-]C(=O)c1ccccc1.CC(=O)[CH-]C(=O)c1ccccc1.CC[C@H](/C=C/C(C)[C@H]1CCC2[C@@H]3CC=C4C[C@@H]([O-])CC[C@]4(C)C3CC[C@@]21C)C(C)C.CC[O-].[Ti+4] (stereo not given in full)")
"> 100 µM"
>>> result("Cc1ccc(N=C2S/C(=C3/CCC=C3N3CCOCC3)N(c3ccc(Cl)cc3)C2=Nc2ccc(C)cc2)cc1")
"> 100 µM"
>>> result("O=C(/C=C/c1ccccc1Cl)c1cccc2ccccc12")
"4.06 µM"
>>> result("C/C(=N\\NS(=O)(=O)c1ccc(C)cc1)c1cc2ccccc2n1C")
"> 100 µM"

Q: Recorded TGI for COc1cccc(C2ON=C(c3ccccc3)N2C23CC4CC(CC(C4)C2)C3)c1 (stereo not given) with SW-620 colon, please?
A: > 10 µM

Q: Recorded TGI for c1cc(CSSCc2ccncc2)ccn1 with SW-620 colon, please?
A: > 100 µM

Q: Recorded TGI for Cc1c(-c2ccccc2)c(C#N)c2nnn(C3CCCCC3)c(=O)n12 with SW-620 colon, please?
A: > 100 µM

Q: Recorded TGI for N#CCOc1ccc(/C=C/C(=O)c2ccc(Cl)cc2)cc1 with SW-620 colon, please?
A: 70.4 µM

----------
Test system: HL-60(TB) leukemia
methodDescription: NCI tumour cell line growth inhibition, 48 h; in the data active = GI50 below about 0.43 µM; inactive = the rest
Allowed answers: active, inactive

Q: Query: recorded result category for CCCCCCC/C=C/[C@H]1O[C@]2(O)C(=O)C=C3C[C@@H](O[C@@H]4O[C@H](CO)[C@@H](O)C(O)[C@@H]4O)C[C@@H]3[C@H]2C=C1C (stereo not given in full) in this test
A: inactive

Q: Query: recorded result category for O=C(c1ccco1)c1c(C(F)(F)F)nc2ccc(C(F)(F)F)cc2[n+]1[O-] in this test
A: inactive

Q: Query: recorded result category for NC1CCC(Nc2nc(NCc3cc(Cl)ccc3O)c3ncn(C4CCCC4)c3n2)CC1 (stereo not given) in this test
A: active

Q: Query: recorded result category for N#Cc1ccsc1NC(=O)COC(=O)c1cccc(S(=O)(=O)N2CCc3ccccc32)c1 in this test
A: inactive

Q: Query: recorded result category for CC(C)(CCN=C(N)Nc1ccccn1)c1ccc(C(F)(F)F)cc1 in this test
A: inactive

----------
Reported TGI values for the following compounds.
Tested on: BT-549 breast
methodDescription: NCI tumour cell line growth inhibition, 48 h
Express it in µM; write the number only.

The examples below pair each entry with its known result.
>>> result("N#CCOc1ccc(/C=C/C(=O)c2ccc(Cl)cc2)cc1")
11.7
>>> result("CCCCCCC/C=C/[C@H]1O[C@]2(O)C(=O)C=C3C[C@@H](O[C@@H]4O[C@H](CO)[C@@H](O)C(O)[C@@H]4O)C[C@@H]3[C@H]2C=C1C (stereo not given in full)")
5.53
>>> result("CC(=O)Oc1c2c(c(CC=C(C)C)c3c1C(=O)C1=C[C@@H]4CC5C(C)(C)OC(C/C=C(/C)C(=O)O)(C4=O)[C@@]15O3)OC(C)(CCC=C(C)C)C=C2 (stereo not given in full)")
0.461

Next compound, TGI to be filled in.
Q: Sample CC(C)COC(=O)OC(=O)c1ccc(N(C)Cc2cnc3nc(N)nc(N)c3n2)cc1 — what was its TGI?
A: 97.8

----------
Reported TGI values for the following compounds.
System: DMS 114 small cell lung
methodDescription: NCI tumour cell line growth inhibition, 48 h
Express it in µM; write the number only.

>>> result("CSc1ccc(OCC2OC2O)cc1 (centres undefined)")
86.3

Q: Recorded TGI for COC(=O)N/N=C(\C(=O)Nc1cccc([N+](=O)[O-])c1)c1nc2ccc([N+](=O)[O-])cc2[nH]c1=O with DMS 114 small cell lung, please?
A: 40.1

Q: Recorded TGI for Cc1cc2c(C(C)C)c(O)c(O)c(C=NCCO)c2c(O)c1-c1c(C)cc2c(C(C)C)c(O)c(O)c(C=NCCO)c2c1O with DMS 114 small cell lung, please?
A: 2.7

Q: Recorded TGI for COC(=O)C1=CC2CC1C(S(=O)(=O)c1ccccc1)C2S(=O)(=O)c1ccccc1 (centres undefined) with DMS 114 small cell lung, please?
A: 36

----------
Tested on: LOX IMVI melanoma
methodDescription: NCI tumour cell line growth inhibition, 48 h; in the data active = GI50 below about 0.43 µM; inactive = the rest
Allowed answers: active, inactive

>>> assignedlabel("COc1cccc(-n2cc(-c3nc(Nc4cc(C)[nH]n4)c4ccccc4n3)nn2)c1")
"inactive"

Q: Query: recorded result category for CC(=O)c1ccc(Nc2nc(Nc3ccc(F)cc3)nc(Nc3ccc(F)cc3)n2)cc1 in this test
A: inactive

Q: Query: recorded result category for CC1SC2(CCC(c3ccccc3)CC2)N(NC(=O)c2[nH]c3ccc(F)cc3c2-c2ccccc2)C1=O (centres undefined) in this test
A: inactive

Q: Query: recorded result category for CO[C@]12C=C/C(=C(/C(=O)OCc3cccnc3)C(=O)CCCCCCCC[C@@]3(OC)C=C/C(=C(/C(=O)OCc4cccnc4)C(=O)CCCCCCCC1)O3)O2 in this test
A: inactive

Q: Query: recorded result category for C1COCCOCCOCCOCCOCCO1.[Cl][Sn]([Cl])([c]1ccccc1)[c]1ccccc1 in this test
A: inactive

Q: Query: recorded result category for Cc1ccc(/C=C/C(=N/N=C(N)N)c2ccccc2)cc1 in this test
A: inactive

Q: Query: recorded result category for O=c1c2c(c3ccccc3n1-c1ccccc1)NC(=S)NC2c1ccc(Cl)cc1 (centres undefined) in this test
A: inactive

Q: Query: recorded result category for N#Cc1ccsc1NC(=O)COC(=O)c1cccc(S(=O)(=O)N2CCc3ccccc32)c1 in this test
A: inactive

Q: Query: recorded result category for Cc1[nH]c(C(=O)Nc2ccccc2OC2CCNCC2)c(Cl)c1Cl in this test
A: inactive
